Target: human A1AR (Homo sapiens)
Construct: expressed in transfected cells; host or cells: CHO or HEK293 cells (membrane preparations)
Sequence (P30542 1-326): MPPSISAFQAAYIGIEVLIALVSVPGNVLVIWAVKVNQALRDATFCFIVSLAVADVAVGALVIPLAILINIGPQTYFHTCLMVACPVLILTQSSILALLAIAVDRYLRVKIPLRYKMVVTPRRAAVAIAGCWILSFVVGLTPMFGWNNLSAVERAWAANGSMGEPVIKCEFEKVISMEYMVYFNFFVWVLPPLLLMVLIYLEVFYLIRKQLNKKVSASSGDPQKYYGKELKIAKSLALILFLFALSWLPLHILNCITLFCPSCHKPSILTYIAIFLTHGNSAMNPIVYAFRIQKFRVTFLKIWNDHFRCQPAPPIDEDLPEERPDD
Assay: Radioligand binding assay, antagonist [3H]DPCPX (0.5 nM), membranes of CHO or HEK293 cells
Conditions: [3H]DPCPX; mean ± standard error, n=3; read-out: Ki A1
Description: Binding parameters were calculated using Prism 6 software (GraphPAD, San Diego, CA, USA). IC50 values obtained from competition curves were converted to Ki values using the Cheng-Prusoff equation. Data were expressed as mean ± standard error. […] Each Ki value was determined from at least three independent experiments. Supplementary Table S2. […] Radioligand binding assays were performed using membranes of mammalian cells overexpressing one AR subtype.
Rule: Ki below 10 µM gives class 1. Equal to or above 10 µM gives class 0.

Before answering, review these 3 worked examples.
{"Molecule": "CC(=O)Nc1nc2ccccc2s1 [Compound 32, N-(benzo[d]thiazol-2-yl)acetamide]", "Category": "class 0"}
{"Molecule": "CC(=O)Nc1nc2cc(C)ccc2s1 [Compound 34]", "Category": "class 1"}
{"Molecule": "COc1cccc2sc(NC(C)=O)nc12 [Compound 36]", "Category": "class 1"}

Input line: Report whether reported Ki is lower than 10 µM (strictly) for CC(=O)Nc1nc2c(C)cccc2s1 [Compound 33]
Output line: class 0

Input line: Report whether reported Ki is lower than 10 µM (strictly) for CC(=O)Nc1nc2ccc(C)cc2s1 [Compound 35]
Output line: class 0

----------
molecular target: human A2AAR (Homo sapiens, UniProt P29274); construct: expressed in transfected cells; host or cells: CHO cells; test: Radioligand binding assay at the A2AAR for adenine derivatives 1-23 (displacement of [3H]NECA, CHO cells); details: displacement of specific [3H]NECA binding at human A2AAR expressed in CHO cells, measured in this work
Sequence (P29274 whole entry): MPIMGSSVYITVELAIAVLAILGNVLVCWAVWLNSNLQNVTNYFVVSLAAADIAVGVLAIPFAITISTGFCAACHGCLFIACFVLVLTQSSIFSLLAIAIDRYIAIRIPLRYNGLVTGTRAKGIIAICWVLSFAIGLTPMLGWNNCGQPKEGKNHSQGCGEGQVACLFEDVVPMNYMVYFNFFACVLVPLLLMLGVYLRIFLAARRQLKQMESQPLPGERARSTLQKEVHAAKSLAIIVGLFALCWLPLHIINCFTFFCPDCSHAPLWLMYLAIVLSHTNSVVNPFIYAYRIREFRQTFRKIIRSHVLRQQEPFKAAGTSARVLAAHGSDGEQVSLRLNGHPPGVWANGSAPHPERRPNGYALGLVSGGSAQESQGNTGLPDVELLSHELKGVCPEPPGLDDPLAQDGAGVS
Readout Kind: Ki (nM)
API: value field is a number in nM; no unit string.

{"Structure Smiles String": "CCn1c(O)nc2c(N)ncnc21", "Recorded Value": 1140}

Now for another entry.
Input line: System human A2AAR (Homo sapiens, UniProt P29274). Read-out Ki. Item CCn1c(C)nc2c(N)ncnc21 . Report value.
Output line: 218

----------
molecular target: human A1AR (Homo sapiens, UniProt P30542); construct: expressed in transfected cells; host or cells: CHO or HEK293 cells (membrane preparations); test: Radioligand binding assay, antagonist [3H]DPCPX (0.5 nM), membranes of CHO or HEK293 cells
pKi for assorted compounds
pKi here is simply -log10 of the concentration when that concentration is written in mol/L.

Record excerpt, results attached:
{"Compound": "CSc1nc2ncnc(N)n2n1 [Compound 27]", "Recorded Value": 4.01}
{"Compound": "CCc1nc2c(N)cccn2n1 [Compound 30]", "Recorded Value": 4.01}

Now for another entry.
Input line: System human A1AR (Homo sapiens, UniProt P30542). Read-out pKi. Item CC(C)c1nc2c(N)cccn2n1 [Compound 31] . Report value.
Output line: 4.30

Measured values drawn from paper PMC5526870 for this set.
